Below is a list of entries, each paired with its recorded EC50 value.
Test system: TGF-b induced Endothelin-1 production
Assay: ET-1 assay: inhibitory effect on TGF-b induced endothelin-1 production
Type: cell-based
Settings: Homo sapiens, Fibroblast; fibroblasts, stimulant (TGFb, serum, LPA etc), ET-1 in media by ELISA, 4-parameter fit
recorded endpoint: EC50

> print(dat)
                                   compound                    experimental.target  recorded.endpoint        result
1  COc1cc(=O)n(-c2ccc(OC(F)(F)F)cc2)cc1-c1cnn(C)c1 [Compound 120]  TGF-b induced Endothelin-1 production               EC50       < 50 µM
2  COc1cccc(-n2cc(Br)ccc2=O)c1 [Compound 266]  TGF-b induced Endothelin-1 production               EC50      > 200 µM
3  Cc1cc(=O)n(-c2ccc(OC(F)(F)F)cc2)cc1-c1ccc2c(c1)OCC(=O)N2 [Compound 424]  TGF-b induced Endothelin-1 production               EC50  50 to 200 µM
4  O=c1ccc(-c2ccc(F)cc2)cn1Cc1ccccc1 [Compound 79]  TGF-b induced Endothelin-1 production               EC50       < 50 µM

====

Tested on: TGF-b induced Endothelin-1 production
Assay: ET-1 assay: inhibitory effect on TGF-b induced endothelin-1 production
Format: cell-based
Settings: Homo sapiens, Fibroblast; fibroblasts, stimulant (TGFb, serum, LPA etc), ET-1 in media by ELISA, 4-parameter fit
recorded endpoint: EC50

> print(dat)
                                   compound                    experimental.target  recorded.endpoint   result
1  CCOc1ccc(-n2cc(-c3cnn(C)c3)c(NCc3cc(F)cc(F)c3)cc2=O)c(C)c1 [Compound 703]  TGF-b induced Endothelin-1 production               EC50  < 50 µM
2  O=c1cc(OCCN2CCCC2)c(-c2ccc(F)cc2)cn1-c1ccc(OC(F)(F)F)cc1 [Compound 93]  TGF-b induced Endothelin-1 production               EC50  < 50 µM
3  Cn1cc(-c2cn(-c3ccc(OC(F)(F)F)cc3)c(=O)c3c2ccn3C2CC2)cn1 [Compound 649]  TGF-b induced Endothelin-1 production               EC50  < 50 µM
